This collection of values is drawn from patent US20260209220A1.

Molecular target: rM4 receptors (Rattus norvegicus)
Sequence (P08485 1-478): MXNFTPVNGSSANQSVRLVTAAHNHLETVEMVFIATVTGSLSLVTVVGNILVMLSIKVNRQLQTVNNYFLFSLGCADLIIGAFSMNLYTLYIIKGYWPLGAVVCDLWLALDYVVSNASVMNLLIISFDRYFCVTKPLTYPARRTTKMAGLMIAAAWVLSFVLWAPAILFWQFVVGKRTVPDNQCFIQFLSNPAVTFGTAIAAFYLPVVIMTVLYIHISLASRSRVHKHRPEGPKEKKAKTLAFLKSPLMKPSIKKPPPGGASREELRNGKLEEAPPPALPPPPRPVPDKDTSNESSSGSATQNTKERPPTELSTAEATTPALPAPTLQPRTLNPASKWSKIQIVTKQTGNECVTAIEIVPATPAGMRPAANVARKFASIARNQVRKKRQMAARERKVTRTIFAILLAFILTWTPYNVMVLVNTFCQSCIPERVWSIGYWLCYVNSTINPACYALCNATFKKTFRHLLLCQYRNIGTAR
Assay: Rat M4 PAM PERK assay (CHO cells, TR-FRET, with EC20 acetylcholine)
measurement_type: EC50

Cc1cc(=O)n(C)c2c1[C@@H](C)N(C(=O)CC1CN(c3ccc(C(F)(F)F)cc3)C1)C2	200 to 1000 nM
Cc1c2c(n(C)c(=O)c1Cl)CN(C(=O)CC1CN(c3ccc(C(F)(F)F)cc3)C1)C2	< 50 nM
Cc1cc(=O)n(C)c2c1CN(C(=O)CC1CN(c3ccc(C(F)(F)F)cc3)C1)C2	> 1000 nM
Cc1cc2c(n(C)c1=O)CN(C(=O)CC1CN(c3ccnc(C(F)(F)F)c3)C1)C2	> 1000 nM
Cc1cc(=O)n(C)c2c1CN(C(=O)CC1CN(c3cccc(C(F)(F)F)c3)C1)C2	200 to 1000 nM

State its EC50: `Cc1cc(=O)n(CC2CC2)c2c1CN(C(=O)CC1CN(c3ccnc(C(F)(F)F)c3)C1)C2`
200 to 1000 nM

State its EC50: `Cc1cc(=O)n(C)c2c1CN(C(=O)CC1CN(c3ccc(C#N)c(C(F)(F)F)c3)C1)C2`
50 to 200 nM

State its EC50: `Cc1c2c(n(C)c(=O)c1C)CN(C(=O)CC1CN(c3ccc(C#N)cc3)C1)C2`
50 to 200 nM

---

target: hM4 receptors (Homo sapiens); assay: Human M4 PAM PERK assay (CHO cells, TR-FRET, with EC20 acetylcholine)
Sequence (P08173 whole entry): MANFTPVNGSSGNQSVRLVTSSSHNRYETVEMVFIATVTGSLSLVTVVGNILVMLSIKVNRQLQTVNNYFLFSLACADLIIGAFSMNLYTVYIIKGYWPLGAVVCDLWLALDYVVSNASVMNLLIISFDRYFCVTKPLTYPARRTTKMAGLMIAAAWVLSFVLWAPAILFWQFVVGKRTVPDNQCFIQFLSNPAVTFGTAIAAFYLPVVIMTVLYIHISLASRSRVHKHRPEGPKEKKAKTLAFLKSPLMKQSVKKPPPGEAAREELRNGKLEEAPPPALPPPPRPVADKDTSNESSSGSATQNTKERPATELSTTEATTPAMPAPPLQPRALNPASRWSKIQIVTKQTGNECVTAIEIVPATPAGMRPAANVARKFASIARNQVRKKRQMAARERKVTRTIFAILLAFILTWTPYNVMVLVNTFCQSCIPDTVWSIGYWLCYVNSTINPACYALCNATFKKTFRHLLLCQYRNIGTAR
measurement_type: EC50

Worked cases, EC50 given:
Cc1cc(=O)n(CC2CC2)c2c1CN(C(=O)CC1CN(c3ccc(C(F)(F)F)cc3)C1)C2 [Compound I-102]	0.2 to 1 µM
Cc1c2c(n(C)c(=O)c1C)CN(C(=O)CC1CN(c3cc(F)cc(F)c3)C1)C2 [Compound I-56]	< 0.05 µM
COc1c2c(n(C)c(=O)c1C)CN(C(=O)CC1CN(c3ccc(C(F)(F)F)cc3)C1)C2 [Compound I-100]	0.05 to 0.2 µM
Cc1c2c(n(C)c(=O)c1Br)CN(C(=O)CC1CN(c3ccnc(C(F)(F)F)c3)C1)C2 [Compound I-110]	< 0.05 µM
Cc1c2c(n(CC(F)(F)F)c(=O)c1Cl)CN(C(=O)CC1CN(c3ccccc3)C1)C2 [Compound I-94]	0.2 to 1 µM

State its EC50: COc1cncc(N2CC(CC(=O)N3Cc4c(C)c(Cl)c(=O)n(C)c4C3)C2)c1 [Compound I-75]
< 0.05 µM

State its EC50: Cc1c2c(n(C)c(=O)c1C)CN(C(=O)CC1CN(c3ccc(F)c(C4CC4)c3)C1)C2 [Compound I-55]
0.2 to 1 µM

State its EC50: Cc1cc(=O)n(C)c2c1CN(C(=O)CC1CN(c3ccc(F)c(C(F)(F)F)c3)C1)C2 [Compound I-20]
0.05 to 0.2 µM
